Test: Ratio of compound kinetic solubility to [1,1'-Biphenyl]-4,4'-diyl bis(3,4,5-trihydroxybenzoate)] kinetic solubility in universal buffer at pH 7.4 measured at 25 degC after 24 hrs by UV/Visible spectroscopic analysis
Assay type: physicochemical
Conditions: pH 7.4, 24 h
MEASURED_ENDPOINT: Ratio

# SAMPLE_SMILES, MEASURED_ENDPOINT, VALUE_MEASURED
data = [
    ("O=C(Oc1ccc(/C=C/c2ccc(OC(=O)c3cc(O)c(O)c(O)c3)cc2)cc1)c1cc(O)c(O)c(O)c1", "Ratio", "6 to 15"),
    ("O=C(Oc1ccc(/C=C/c2cccc(OC(=O)c3cc(O)c(O)c(O)c3)c2)cc1)c1cc(O)c(O)c(O)c1", "Ratio", 15),
]

====

Tested on: A549
Experiment: Antiproliferative activity against human A549 cells expressing FASN assessed as reduction in cell viability after 72 hrs by MTS assay
Type: functional, cell-based
Details: A549, 72 h
pIC50: −log10 of the molar value.
MEASURED_ENDPOINT: pIC50

# COMPOUND, MEASURED_ENDPOINT, VALUE_MEASURED
data = [
    ("O=C(Oc1ccc(/C=C/c2cccc(OC(=O)c3cc(O)c(O)c(O)c3)c2)cc1)c1cc(O)c(O)c(O)c1", "pIC50", 5.64),
    ("O=C(Oc1ccc(/C=C/c2ccc(OC(=O)c3cc(O)c(O)c(O)c3)cc2)cc1)c1cc(O)c(O)c(O)c1", "pIC50", 5.68),
    ("O=C(O[C@@H]1Cc2c(O)cc(O)cc2O[C@@H]1c1cc(O)c(O)c(O)c1)c1cc(O)c(O)c(O)c1 [EPIGALOCATECHIN GALLATE]", "pIC50", 3.73),
]

====

Assay: Kinetic solubility of the compound in universal buffer at pH 7.4 measured at 25 degC after 24 hrs by UV/Visible spectroscopic analysis
Format: physicochemical
Conditions: read-out: Kinetic_solubility

# SAMPLE_SMILES, solubility kinetic at 24 h [µM]
records = [
    ("O=C(Oc1ccc(/C=C/c2cccc(OC(=O)c3cc(O)c(O)c(O)c3)c2)cc1)c1cc(O)c(O)c(O)c1", 6),
    ("O=C(Oc1ccc(/C=C/c2ccc(OC(=O)c3cc(O)c(O)c(O)c3)cc2)cc1)c1cc(O)c(O)c(O)c1", 2.5),
    ("O=C(Oc1ccc(-c2ccc(OC(=O)c3cc(O)c(O)c(O)c3)cc2)cc1)c1cc(O)c(O)c(O)c1", 0.4),
]

====

Target: Fatty acid synthase (Homo sapiens) (UniProt P49327)
Sequence (P49327 whole entry, looked up): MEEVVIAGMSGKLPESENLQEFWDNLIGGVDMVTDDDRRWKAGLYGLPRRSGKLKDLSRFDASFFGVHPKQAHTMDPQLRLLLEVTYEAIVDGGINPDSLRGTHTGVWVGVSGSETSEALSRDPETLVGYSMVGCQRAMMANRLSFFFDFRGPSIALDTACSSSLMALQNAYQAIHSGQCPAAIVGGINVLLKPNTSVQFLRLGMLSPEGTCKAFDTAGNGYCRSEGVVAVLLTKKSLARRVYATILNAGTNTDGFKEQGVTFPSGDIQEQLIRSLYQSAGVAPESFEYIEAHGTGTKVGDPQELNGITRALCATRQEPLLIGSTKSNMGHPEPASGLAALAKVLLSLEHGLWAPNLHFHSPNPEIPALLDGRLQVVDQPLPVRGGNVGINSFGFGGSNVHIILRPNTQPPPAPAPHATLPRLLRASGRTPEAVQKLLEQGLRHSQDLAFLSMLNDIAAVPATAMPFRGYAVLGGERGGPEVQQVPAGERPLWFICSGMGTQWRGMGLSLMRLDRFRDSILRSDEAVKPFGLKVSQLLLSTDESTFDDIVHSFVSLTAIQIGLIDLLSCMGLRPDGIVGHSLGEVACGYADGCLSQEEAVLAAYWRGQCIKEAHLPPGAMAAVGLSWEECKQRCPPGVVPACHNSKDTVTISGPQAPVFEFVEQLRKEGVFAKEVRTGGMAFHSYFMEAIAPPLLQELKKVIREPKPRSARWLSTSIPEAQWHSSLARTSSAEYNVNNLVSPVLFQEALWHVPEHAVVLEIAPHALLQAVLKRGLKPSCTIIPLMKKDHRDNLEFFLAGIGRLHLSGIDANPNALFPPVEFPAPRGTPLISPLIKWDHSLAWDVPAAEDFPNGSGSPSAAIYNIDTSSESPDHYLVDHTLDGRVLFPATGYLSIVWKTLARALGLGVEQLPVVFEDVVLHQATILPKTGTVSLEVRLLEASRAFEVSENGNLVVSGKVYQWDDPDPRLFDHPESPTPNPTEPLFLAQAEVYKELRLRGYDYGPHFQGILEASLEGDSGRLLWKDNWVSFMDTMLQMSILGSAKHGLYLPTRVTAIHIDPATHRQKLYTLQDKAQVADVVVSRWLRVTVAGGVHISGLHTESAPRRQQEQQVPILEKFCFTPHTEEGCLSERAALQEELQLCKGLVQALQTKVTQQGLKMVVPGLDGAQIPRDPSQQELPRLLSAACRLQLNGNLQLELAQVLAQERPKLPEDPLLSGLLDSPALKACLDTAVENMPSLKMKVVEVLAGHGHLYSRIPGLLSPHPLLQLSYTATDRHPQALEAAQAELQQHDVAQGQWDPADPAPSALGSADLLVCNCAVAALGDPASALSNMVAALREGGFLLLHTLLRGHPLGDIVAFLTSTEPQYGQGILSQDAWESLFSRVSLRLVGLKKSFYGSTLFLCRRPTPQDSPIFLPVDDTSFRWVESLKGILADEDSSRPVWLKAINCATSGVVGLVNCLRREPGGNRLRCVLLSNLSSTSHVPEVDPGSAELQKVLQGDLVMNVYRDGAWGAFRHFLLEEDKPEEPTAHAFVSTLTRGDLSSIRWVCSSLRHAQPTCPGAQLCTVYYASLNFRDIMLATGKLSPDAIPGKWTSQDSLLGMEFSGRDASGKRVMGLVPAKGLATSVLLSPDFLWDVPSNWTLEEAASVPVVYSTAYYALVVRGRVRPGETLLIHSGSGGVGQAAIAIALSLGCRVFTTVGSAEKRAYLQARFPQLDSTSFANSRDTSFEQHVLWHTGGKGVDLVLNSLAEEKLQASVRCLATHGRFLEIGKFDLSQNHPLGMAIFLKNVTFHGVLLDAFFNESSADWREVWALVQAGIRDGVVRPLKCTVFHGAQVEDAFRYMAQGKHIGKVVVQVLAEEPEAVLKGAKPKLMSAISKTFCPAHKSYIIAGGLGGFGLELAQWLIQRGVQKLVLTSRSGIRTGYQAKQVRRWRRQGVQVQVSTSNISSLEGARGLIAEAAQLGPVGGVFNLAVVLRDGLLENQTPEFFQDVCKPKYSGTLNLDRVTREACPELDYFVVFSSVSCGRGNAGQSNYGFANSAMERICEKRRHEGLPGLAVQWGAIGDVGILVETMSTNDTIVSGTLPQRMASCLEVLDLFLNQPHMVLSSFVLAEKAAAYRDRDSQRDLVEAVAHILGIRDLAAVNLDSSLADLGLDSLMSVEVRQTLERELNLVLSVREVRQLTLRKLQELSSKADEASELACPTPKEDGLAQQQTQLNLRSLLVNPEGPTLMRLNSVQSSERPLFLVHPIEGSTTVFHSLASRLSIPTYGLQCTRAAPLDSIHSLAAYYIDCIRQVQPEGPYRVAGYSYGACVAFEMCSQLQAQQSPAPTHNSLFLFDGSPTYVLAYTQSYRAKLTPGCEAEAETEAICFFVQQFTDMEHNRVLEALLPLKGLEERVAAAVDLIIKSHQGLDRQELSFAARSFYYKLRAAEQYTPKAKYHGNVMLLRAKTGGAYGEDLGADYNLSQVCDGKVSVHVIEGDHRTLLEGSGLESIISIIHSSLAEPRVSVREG
Assay: Inhibition of full length human FASN transfected in HeLa cell lysates at 10 uM using acetyl Co-A/malonyl Co-A as substrate preincubated with enzyme for 2 hrs followed by substrate addition measured after 10 mins in presence of NADPH by microplate reader analysis
Assay type: subcellular
Details: Lysate
Active and inactive are the calls of the source. The rule behind the calls is not given here.
Classes used: T for active, F for inactive

# COMPOUND, SYSTEM_NAME, CAT
rows = [
    ("O=C(O[C@@H]1Cc2c(O)cc(O)cc2O[C@@H]1c1cc(O)c(O)c(O)c1)c1cc(O)c(O)c(O)c1 [EPIGALOCATECHIN GALLATE]", "Fatty acid synthase (Homo sapiens) (UniProt P49327)", "F"),
    ("O=C(Oc1ccc(/C=C/c2ccc(OC(=O)c3cc(O)c(O)c(O)c3)cc2)cc1)c1cc(O)c(O)c(O)c1", "Fatty acid synthase (Homo sapiens) (UniProt P49327)", "T"),
    ("O=C(Oc1ccc(/C=C/c2cccc(OC(=O)c3cc(O)c(O)c(O)c3)c2)cc1)c1cc(O)c(O)c(O)c1", "Fatty acid synthase (Homo sapiens) (UniProt P49327)", "T"),
    ("COc1cc(C(=O)Oc2ccc(/C=C/c3cccc(OC(=O)c4cc(OC)c(OC)c(OC)c4)c3)cc2)cc(OC)c1OC", "Fatty acid synthase (Homo sapiens) (UniProt P49327)", "F"),
]
